Sourced from PubChem BioAssay AID1996

Condition Label: buffer; pH 7.4; 200.0 µM
Could you please report measured solubility kinetic for the items listed next?

compound="O=C1CC(NC2CCN(C(=O)c3cccc(F)c3)CC2)C(=O)N1 (configuration not stated)" result="> 47.9 µg/mL"

Hey, quick one: what's solubility kinetic for each of these?
1. O=C(Nc1cccc(S(=O)(=O)NC2=NCCC2)c1)c1ccc(F)cc1
2. Nc1ccc(-c2cn3cccnc3n2)cc1
3. O=C1C=C(NC2CCCC2)CC(c2ccccc2)C1 (configuration not stated)
4. O=C(NCc1ccncc1)c1cncc(Br)c1
5. CC(Oc1ccc(-c2nnco2)cc1)C(=O)N1CCOCC1 (configuration not stated)

## Output
> 54.2 µg/mL
> 31.5 µg/mL
> 38.3 µg/mL
> 43.8 µg/mL
> 45.5 µg/mL

====

Condition Label: buffer; pH 7.4; 200.0 µM
Measurement Type: solubility kinetic (µg/mL)
One number for each entry, in µg/mL.

Some solved cases for reference:
molecular_string=Cc1ccc(C(=O)NCc2ccco2)c(C)c1 measurement_type="solubility kinetic" unit_text=µg/mL number=33.6
molecular_string=O=S(=O)(NCC1CC1)c1cc(Cl)cc(Cl)c1 measurement_type="solubility kinetic" unit_text=µg/mL number=10.2

Hey, quick one: what's solubility kinetic for each of these?
1. O=[N+]([O-])c1ccccc1/C=C/CN1CCSCC1
2. NC(=O)c1cc(-c2ccccc2)nc2ccc(Br)cc12

## Output
1. 29.2
2. 1.8

====

Condition Label: buffer; pH 7.4; 200.0 µM
Measurement Type: solubility kinetic

compound=COc1ccccc1CN(C)C(=O)c1cnc(C)cn1 result="> 40.7 µg/mL"
compound=O=S(=O)(Cc1ccccc1)Cc1cnc(Cl)s1 result="> 43.2 µg/mL"

Hey, quick one: what's solubility kinetic for each of these?
1. CN(C)c1ccc(NC(=S)c2ccc3ccccc3n2)cc1
2. Cc1ccc2nc(SC(C)C(=O)N3CCCCC3)[nH]c2c1 (centres undefined)
3. CCOC(=O)Cn1cc(C(=O)C(=O)N2CCOCC2)c2ccccc21
4. Nc1cccc(Oc2cnccn2)c1
5. O=S(=O)(Nc1cccc(-c2nc3cccnc3s2)c1)c1cccs1
6. OC[C@H]1O[C@@H](n2cnc3c(NC4CCCC4)ncnc32)[C@H](O)[C@@H]1O
7. O=C(CCNC(=O)c1ccc([N+](=O)[O-])cc1)NCc1cccs1

## Output
1. < 0.2 µg/mL
2. > 45.5 µg/mL
3. > 51.7 µg/mL
4. > 28.1 µg/mL
5. 0.9 µg/mL
6. > 50.3 µg/mL
7. > 50 µg/mL

Hey, quick one: what's solubility kinetic for each of these?
1. Cc1cc(C(=O)NC(Cc2c[nH]c3ccccc23)C(=O)O)c(C)o1 (centres undefined)
2. Cc1ccc(NC(=O)Cn2c([N+](=O)[O-])cnc2C)cc1Cl
3. CCc1nc2ccc(C(=O)N3CCN(CC)CC3)cc2nc1CC
4. O=C1OC(c2ccc(Cl)cc2)=C/C1=C/c1cccnc1
5. O=C(COC(=O)Cc1ccc(Cl)cc1Cl)NC1CC1

## Output
["41.6 µg/mL", "1.6 µg/mL", "48.6 µg/mL", "0.7 µg/mL", "> 45.3 µg/mL"]

Hey, quick one: what's solubility kinetic for each of these?
1. CC(=O)c1c(C)n(-c2cccc(Cl)c2)c2ccc(O)cc12
2. COc1ccc2oc(=N)c(C(=O)NCc3ccccc3)cc2c1
3. Cc1nc2ccc(NS(=O)(=O)c3cccc([N+](=O)[O-])c3)cc2s1
4. Nc1cc(=O)[nH]c(SCC(=O)Nc2ccc([N+](=O)[O-])cc2)n1

## Output
1: < 0.6 µg/mL; 2: 3.1 µg/mL; 3: > 52.4 µg/mL; 4: > 48.2 µg/mL
